This collection of values is drawn from patent US9708336B2.

target: VIM-1 (Pseudomonas aeruginosa (strain ATCC 15692 / DSM 22644 / CIP 104116 / JCM 14847 / LMG 12228 / 1C / PRS 101 / PAO1)); test: Enzyme activity: determination of IC50, fluorescence assay with CCF2-FA substrate (VIM-1); assay type: biochemical; conditions: fluorescence assay with CCF2-FA substrate; read-out: VIM-1 IC50
pIC50: −log10 of the molar value.
Mark class 0 for pIC50 values under 7, and class 1 for everything at or above.

- NS(=O)(=O)c1cccc(C2CCC2)c1-c1nnn[nH]1: class 0
- NS(=O)(=O)c1c(C(F)(F)F)ccc([C@H]2CC[C@@H](N)CC2)c1-c1nnn[nH]1: class 1
- CN(C)CCC1CCN(c2ccnc(S(N)(=O)=O)c2-c2nnn[nH]2)CC1: class 0
- N=C(N)N[C@H]1CC[C@H](c2ccc(C(F)(F)F)c(S(N)(=O)=O)c2-c2nnn[nH]2)CC1: class 1
- NS(=O)(=O)c1c(C(F)(F)F)ccc(-c2ccc(C3CN(CC4CCNC4)C3)cc2)c1-c1nnn[nH]1 (centres unmarked): class 1
- N=C(N)N1CCC([C@H]2CC[C@H](c3ccc(C(F)(F)F)c(S(N)(=O)=O)c3-c3nnn[nH]3)CC2)CC1: class 1
- NS(=O)(=O)c1c(C(F)(F)F)ccc(N2CCC(N3CCNCC3)CC2)c1-c1nnn[nH]1: class 1

----------
This section presents compounds with their documented IC50 values.
target: UniProtKB C7C422; assay: biochemical; assay type: biochemical; conditions: NDM-1 enzyme, CCF2-FA fluorescence assay; read-out: NDM-1 IC50
Sequence (C7C422 whole entry, looked up, species assumed): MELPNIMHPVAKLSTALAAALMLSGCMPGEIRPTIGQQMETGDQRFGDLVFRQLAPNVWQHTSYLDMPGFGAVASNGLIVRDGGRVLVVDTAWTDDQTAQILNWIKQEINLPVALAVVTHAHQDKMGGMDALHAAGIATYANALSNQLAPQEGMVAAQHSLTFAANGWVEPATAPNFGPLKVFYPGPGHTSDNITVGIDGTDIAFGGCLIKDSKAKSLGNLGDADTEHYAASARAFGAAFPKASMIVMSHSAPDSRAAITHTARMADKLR
Where a name gives a salt, the structure may show the parent alone.
ENDPOINT_LABEL: IC50 (nM)

• NS(=O)(=O)c1cccc(-c2ccc(CNCCN3CCCC3)cc2)c1-c1nn[nH]n1 [Example 328] = 20.4
• NS(=O)(=O)c1c(C(F)(F)F)ccc(-c2cnc3cc[nH]c3c2)c1-c1nnn[nH]1 [Example 474] = 0.523
• Nc1ccc(-c2ccc(C(F)(F)F)c(S(N)(=O)=O)c2-c2nn[nH]n2)cn1 [Example 265] = 2.65
• CCCc1ccc(-c2ccc(C3CCNCC3)cc2)c(-c2nnn[nH]2)c1S(N)(=O)=O [Example 260] = 11.2
• NS(=O)(=O)c1cccc(-c2snc3cccnc23)c1-c1nnn[nH]1 [Example 414] = 6.01
• NS(=O)(=O)c1cccc(-c2ccc(CN3CCC(CCO)C3)cc2)c1-c1nnn[nH]1 (stereo not drawn) [Example 393] = 10.8
• N=C(N)NC1CCC(CCc2ccc(-c3ccc(C4CCN(C(=N)N)CC4)cc3)c(-c3nn[nH]n3)c2S(N)(=O)=O)CC1 (stereo not drawn) [Example 472] = 0.505
• NS(=O)(=O)c1cccc(-c2ccc(CNC3CCC(=O)NC3)cc2)c1-c1nnn[nH]1 (stereo not drawn) [Example 375] = 6.13
• NS(=O)(=O)c1c(C(F)(F)F)ccc(-c2ccc(C3CCNC3)cc2)c1-c1nn[nH]n1 (stereo not drawn) [Example 443] = 0.909
• CCOCc1ccc(-c2cccc(S(N)(=O)=O)c2-c2nnn[nH]2)cc1 [Example 397] = 3.93
• CN(CCC(=O)O)Cc1ccc(-c2cccc(S(N)(=O)=O)c2-c2nnn[nH]2)cc1 [Example 361] = 12.9
• Nc1ccnc2ccc(-c3ccc(C(F)(F)F)c(S(N)(=O)=O)c3-c3nnn[nH]3)cc12 [Example 479] = 6.66
• NS(=O)(=O)c1cccc(-c2ccc(CN3CCC(CO)C3)cc2)c1-c1nnn[nH]1 (stereo in doubt) [Example 391] = 18.9
• NS(=O)(=O)c1cccc(-c2ccc(CNC[C@@]3(O)CCOC3)cc2)c1-c1nnn[nH]1 [Example 373] = 11.3
• C[C@H](O)c1nc(-c2ccc(-c3cccc(S(N)(=O)=O)c3-c3nn[nH]n3)cc2)no1 [Example 251] = 5.85
• NS(=O)(=O)c1c(C(F)(F)F)ccc(-c2ccc3nccn3c2)c1-c1nnn[nH]1 [Example 481] = 1.46
• CCCc1ccc(-c2cccc(S(N)(=O)=O)c2-c2nnn[nH]2)cn1 [Example 302] = 5.85
• CNCC(C)NCc1ccc(-c2cccc(S(N)(=O)=O)c2-c2nn[nH]n2)cc1 (stereo not drawn) [Example 359] = 13
• Cc1ccc(-c2cc(-c3ccc(O)nc3)cc(S(N)(=O)=O)c2-c2nn[nH]n2)cc1 [Example 292] = 3.65
• NS(=O)(=O)c1cccc(-c2ccc(-c3noc(C4CCNC4)n3)cc2)c1-c1nn[nH]n1 (stereo not drawn) [Example 250] = 18
• NS(=O)(=O)c1cc(Cl)cc(-c2ccc3c(c2)C(=O)NC3)c1-c1nn[nH]n1 [Example 289] = 13.5
• Nc1ccc(CCc2cccc(S(N)(=O)=O)c2-c2nn[nH]n2)cn1 [Example 427] = 29.8
• NS(=O)(=O)c1cccc(-c2cnc3n2CCCC3)c1-c1nnn[nH]1 [Example 419] = 51.9
• Nc1ccc(-c2cccc(S(N)(=O)=O)c2-c2nnn[nH]2)cn1 [Example 298, TFA salt] = 71.7
• COC(=O)c1ccc(-c2nn[nH]n2)c(S(N)(=O)=O)c1 [Example 255] = 699
• NS(=O)(=O)c1cccc(-c2ccc(CNCCO)cc2)c1-c1nnn[nH]1 [Example 390] = 12.2
• CC(C)c1ccc(C(F)(F)F)c(S(N)(=O)=O)c1-c1nnn[nH]1 [Example 488] = 7.9
• Cc1ccc(-c2cc(-c3ccc4c(c3)CNC4)cc(S(N)(=O)=O)c2-c2nn[nH]n2)cc1 [Example 294] = 0.637
• NS(=O)(=O)c1cccc(-c2ccc(N3CCOCC3)nc2)c1-c1nn[nH]n1 [Example 323] = 7.69
• NCc1ccc2cc(-c3cccc(S(N)(=O)=O)c3-c3nn[nH]n3)ccc2n1 [Example 286] = 6.14
• Cc1ccc(-c2cc(-c3cccnc3)cc(S(N)(=O)=O)c2-c2nn[nH]n2)cc1 [Example 293] = 1.02
• CCC(CO)NCc1ccc(-c2cccc(S(N)(=O)=O)c2-c2nnn[nH]2)cc1 (stereo in doubt) [Example 345] = 18.5
• Nc1ncc(-c2ccc(Br)c(S(N)(=O)=O)c2-c2nn[nH]n2)s1 [Example 424] = 18.9
